- assay-protocol: Cytotoxicity against human HepG2(2.2.15) cells at 200 ug/mL by MTT assay
- Assay type: cell-based
- condition-info: read-out: GI
In this section we review reported inhibition at 200 ug/mL values for a set of molecules.
property-label: inhibition at 200 ug/mL

1. COc1cc2c(c(OC)c1OC)-c1c(cc3c(c1O)OCO3)C[C@H](C)[C@@](C)(O)[C@H]2OC(=O)C(C)C: ≥ 25%
2. C/C=C(\C)C(=O)O[C@H]1c2cc(OC)c(OC)c(OC)c2-c2c(cc3c(c2O)OCO3)C[C@H](C)[C@@]1(C)O: ≥ 25%
3. COc1cc2c(c(OC)c1OC)-c1c(cc3c(c1O)OCO3)C[C@H](C)[C@@](C)(O)[C@H]2OC(C)=O: ≥ 25%

Data provenance: ChEMBL document CHEMBL1155330
